Tested on: phosphorus and calcium levels in the urine of rats
Experiment: Urinary excretion of phosphate and calcium in rats (16 h overnight urine)
Format: in vivo, rat
Conditions: rats, oral gavage, dose 10 mg/kg, 16 h post-dose
property.label: Urine P % of control (%)
Answers are plain numbers, in %.

- CN1Cc2c(Cl)cc(Cl)cc2[C@H](c2cccc(S(=O)(=O)NCCOCCOCCOCCNC(=O)CCC(CCC(=O)NCCOCCOCCOCCNS(=O)(=O)c3cccc([C@@H]4CN(C)Cc5c(Cl)cc(Cl)cc54)c3)(CCC(=O)NCCOCCOCCOCCNS(=O)(=O)c3cccc([C@@H]4CN(C)Cc5c(Cl)cc(Cl)cc54)c3)NC(=O)c3ccc(-c4ccc(Cl)cc4)cc3)c2)C1 [compound 91]: 56

Find the measured Urine P % of control of C/C(=C\c1cc(F)c(Oc2ccc(S(=O)(=O)NCCOCCOCCOCCNC(=O)NCCOCCOCCNC(=O)NCCOCCOCCOCCNS(=O)(=O)c3ccc(Oc4c(F)cc(/C=C(\C)C(=O)N=C(N)N)cc4F)cc3)cc2)c(F)c1)C(=O)N=C(N)N [compound 14] and report it.
59

###

Assign Prompt Rat NHE3 pIC50 to each entry below.
Target: Rat NHE3 (Rattus norvegicus, UniProt P26433)
Construct: expressed in transfected cells; host or cells: Opossum kidney (OK) cells (ATCC), electroporation
Sequence (P26433 29-831): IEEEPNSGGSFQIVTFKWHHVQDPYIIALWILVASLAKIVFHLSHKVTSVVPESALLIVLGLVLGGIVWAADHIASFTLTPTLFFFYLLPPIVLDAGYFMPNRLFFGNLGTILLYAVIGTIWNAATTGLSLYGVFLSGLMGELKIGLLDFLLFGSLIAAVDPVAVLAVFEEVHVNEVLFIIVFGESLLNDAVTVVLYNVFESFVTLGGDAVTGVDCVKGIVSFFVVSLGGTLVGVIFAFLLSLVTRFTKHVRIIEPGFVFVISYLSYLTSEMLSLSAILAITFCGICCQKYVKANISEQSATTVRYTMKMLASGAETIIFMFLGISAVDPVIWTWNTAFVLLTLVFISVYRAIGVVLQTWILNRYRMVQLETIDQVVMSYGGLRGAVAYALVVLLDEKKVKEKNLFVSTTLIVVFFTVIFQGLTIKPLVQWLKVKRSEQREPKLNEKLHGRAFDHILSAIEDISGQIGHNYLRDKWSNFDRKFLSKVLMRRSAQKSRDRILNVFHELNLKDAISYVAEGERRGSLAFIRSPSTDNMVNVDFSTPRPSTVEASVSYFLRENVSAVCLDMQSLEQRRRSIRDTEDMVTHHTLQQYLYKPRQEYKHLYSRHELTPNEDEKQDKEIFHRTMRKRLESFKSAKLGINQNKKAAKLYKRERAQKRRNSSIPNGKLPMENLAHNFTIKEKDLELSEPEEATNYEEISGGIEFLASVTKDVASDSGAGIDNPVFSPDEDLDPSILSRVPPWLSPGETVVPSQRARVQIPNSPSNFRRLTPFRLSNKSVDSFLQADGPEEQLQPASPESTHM
Assay: Cell-based NHE3 activity under prompt conditions (OK cells, BCECF pH recovery), rat NHE3
Settings: prompt conditions

* CC(C)CCC[C@@H](C)[C@H]1CC[C@H]2[C@@H]3CC=C4C[C@@H](OC(=O)NCCOCCOCCOCCNS(=O)(=O)c5cccc([C@@H]6CN(C)Cc7c(Cl)cc(Cl)cc76)c5)CC[C@]4(C)[C@H]3CC[C@]12C | <5.00

Answer for every listed entry: what is its Prompt Rat NHE3 pIC50? The entries follow.
1. CC(O)C(CCC(=O)NCCOCCOCCNS(=O)(=O)c1cccc([C@@H]2CN(C)Cc3c(Cl)cc(Cl)cc32)c1)(CCC(=O)NCCOCCOCCNS(=O)(=O)c1cccc([C@@H]2CN(C)Cc3c(Cl)cc(Cl)cc32)c1)CCC(=O)NCCOCCOCCNS(=O)(=O)c1cccc([C@@H]2CN(C)Cc3c(Cl)cc(Cl)cc32)c1 (some centres unmarked)
2. C/C(=C\c1cc(F)c(Oc2ccc(S(=O)(=O)NCCOCCOCCOCCNC(=O)COCC(=O)NCCOCCOCCOCCNS(=O)(=O)c3ccc(Oc4c(F)cc(/C=C(\C)C(=O)N=C(N)N)cc4F)cc3)cc2)c(F)c1)C(=O)N=C(N)N
3. CN1Cc2c(Cl)cc(Cl)cc2[C@H](c2cccc(S(=O)(=O)NCCOCCOCCNC(=O)CCC(CCC(=O)NCCOCCOCCNS(=O)(=O)c3cccc([C@@H]4CN(C)Cc5c(Cl)cc(Cl)cc54)c3)(CCC(=O)NCCOCCOCCNS(=O)(=O)c3cccc([C@@H]4CN(C)Cc5c(Cl)cc(Cl)cc54)c3)NC(=O)N(C)C[C@H](O)[C@@H](O)[C@H](O)[C@H](O)CO)c2)C1
4. CN1Cc2c(Cl)cc(Cl)cc2[C@H](c2cccc(S(=O)(=O)NCCOCCOCCNC(=O)CCC(=O)NCCOCCOCCNS(=O)(=O)c3ccc(O[C@H]4c5ccccc5C[C@@H]4N4CCCCC4)cc3)c2)C1
5. C/C(=C\c1cc(F)c(Oc2ccc(S(=O)(=O)NCCOCCOCCOCCNCc3ccc(CNCCOCCOCCOCCNS(=O)(=O)c4ccc(Oc5c(F)cc(/C=C(\C)C(=O)N=C(N)N)cc5F)cc4)cc3)cc2)c(F)c1)C(=O)N=C(N)N
6. CN1Cc2c(Cl)cc(Cl)cc2[C@H](c2cccc(S(=O)(=O)N(C)CCOCCOCCNC(=O)CCN(CCC(=O)NCCOCCOCCN(C)S(=O)(=O)c3cccc([C@@H]4CN(C)Cc5c(Cl)cc(Cl)cc54)c3)CCC(=O)NCCOCCOCCN(C)S(=O)(=O)c3cccc([C@@H]4CN(C)Cc5c(Cl)cc(Cl)cc54)c3)c2)C1

1: 7.60; 2: 7.30; 3: 8.10; 4: 7.50; 5: 6.70; 6: 6.50

Quick one: give measured Prompt Rat NHE3 pIC50 for CN1Cc2c(Cl)cc(Cl)cc2[C@H](c2cccc(S(=O)(=O)NCCOCCOCCOCCNCc3ccc(-c4ccc(Cl)cc4)cc3)c2)C1
<5.00

###

System: absorption of sodium from the intestinal lumen
Experiment: Inhibition of intestinal sodium absorption: urinary sodium (uNa) 16 h after single oral dose in rats
Assay type: in vivo, rat
Conditions: oral gavage, dose 10 mg/kg, 16 h post-dose
Answer each item with its documented Urine Na % of control.
Give bare numbers, in %.

Here is how some molecules turned out for Urine Na % of control.
* O=C(NCCCCNC(=O)NCCOCCOCCOCCNS(=O)(=O)c1ccc(O[C@H]2c3ccccc3C[C@@H]2N2CCCCC2)cc1)NCCOCCOCCOCCNS(=O)(=O)c1ccc(O[C@H]2c3ccccc3C[C@@H]2N2CCCCC2)cc1 (racemic) [compound 51] | 79
* O=C(NCCOCCOCCOCCNS(=O)(=O)c1ccc(O[C@H]2c3ccccc3C[C@@H]2N2CCCCC2)cc1)c1ccc(C(=O)NCCOCCOCCOCCNS(=O)(=O)c2ccc(O[C@H]3c4ccccc4C[C@@H]3N3CCCCC3)cc2)cc1 | 77
* NCCOCCOCCNS(=O)(=O)c1ccc(O[C@H]2c3cc(Cl)cc(Cl)c3C[C@@H]2N2CCCCC2)cc1 | 121
* NCCOCCOCCOc1cccc(-c2nc(N=C(N)N)nc3ccc(Cl)cc23)c1 | 76
* CN(C)[C@H]1Cc2c(Cl)cc(Cl)cc2[C@@H]1Oc1ccc(S(=O)(=O)NCCOCCOCCNC(=O)NCCCCNC(=O)NCCOCCOCCNS(=O)(=O)c2ccc(O[C@H]3c4cc(Cl)cc(Cl)c4C[C@@H]3N(C)C)cc2)cc1 | 9
* CN(C)[C@H]1Cc2c(Cl)cc(Cl)cc2[C@@H]1Oc1ccc(S(=O)(=O)NCCOCCOCCNC(=O)[C@H](O)[C@@H](O)C(=O)NCCOCCOCCNS(=O)(=O)c2ccc(O[C@H]3c4cc(Cl)cc(Cl)c4C[C@@H]3N(C)C)cc2)cc1 | 12

Go through the items and report each one's Urine Na % of control.
1. O=C(NCCOCCOCCOCCNS(=O)(=O)c1ccc(OC2c3ccccc3CC2N2CCCCC2)cc1)C(O)C(O)C(=O)NCCOCCOCCOCCNS(=O)(=O)c1ccc(OC2c3ccccc3CC2N2CCCCC2)cc1 (mixture of isomers)
2. C/C(=C\c1cc(F)c(Oc2ccc(S(=O)(=O)NCCOCCOCCOCCNC(=O)[C@H](O)[C@@H](O)C(=O)NCCOCCOCCOCCNS(=O)(=O)c3ccc(Oc4c(F)cc(/C=C(\C)C(=O)N=C(N)N)cc4F)cc3)cc2)c(F)c1)C(=O)N=C(N)N

1. 85
2. 51

Go through the items and report each one's Urine Na % of control.
1. COCCNS(=O)(=O)c1cccc(C2CN(C)Cc3c(Cl)cc(Cl)cc32)c1 (stereo not shown)
2. C=CC(=O)NCCOCCOCCOCCNS(=O)(=O)c1cccc([C@@H]2CN(C)Cc3c(Cl)cc(Cl)cc32)c1
3. CN1Cc2c(Cl)cc(Cl)cc2[C@H](c2cccc(S(=O)(=O)NCCOCCOCCOCCNC(=O)CCC(CCC(=O)NCCOCCOCCOCCNS(=O)(=O)c3cccc([C@@H]4CN(C)Cc5c(Cl)cc(Cl)cc54)c3)(CCC(=O)NCCOCCOCCOCCNS(=O)(=O)c3cccc([C@@H]4CN(C)Cc5c(Cl)cc(Cl)cc54)c3)NC(=O)c3ccc(-c4ccc(Cl)cc4)cc3)c2)C1
4. CN(CC(=O)NCCOCCOCCOCCNS(=O)(=O)c1ccc(OC2c3ccccc3CC2N2CCCCC2)cc1)CC(=O)NCCOCCOCCOCCNS(=O)(=O)c1ccc(OC2c3ccccc3CC2N2CCCCC2)cc1 (stereo not shown)
5. CN1Cc2c(Cl)cc(Cl)cc2[C@H](c2cccc(S(=O)(=O)NCCOCCOCCNC(=O)CCC(CCC(=O)NCCOCCOCCNS(=O)(=O)c3cccc([C@@H]4CN(C)Cc5c(Cl)cc(Cl)cc54)c3)(CCC(=O)NCCOCCOCCNS(=O)(=O)c3cccc([C@@H]4CN(C)Cc5c(Cl)cc(Cl)cc54)c3)NCc3ccc(-c4ccc(Cl)cc4)cc3)c2)C1
6. O=C(O)CN(CCN(CC(=O)O)CC(=O)NCCOCCOCCNS(=O)(=O)c1ccc(O[C@H]2c3ccccc3C[C@@H]2N2CCCCC2)cc1)CC(=O)NCCOCCOCCNS(=O)(=O)c1ccc(O[C@H]2c3ccccc3C[C@@H]2N2CCCCC2)cc1 (racemic) [compound 48]

115
56
77
68
64
68

Below are 5 molecules. Give each one its Urine Na % of control.
1. CN1Cc2c(Cl)cc(Cl)cc2[C@H](c2cccc(S(=O)(=O)NCCOCCOCCOCCn3cc(CN(Cc4cn(CCOCCOCCOCCNS(=O)(=O)c5cccc([C@@H]6CN(C)Cc7c(Cl)cc(Cl)cc76)c5)nn4)Cc4cnnn4CCOCCOCCOCCNS(=O)(=O)c4cccc([C@@H]5CN(C)Cc6c(Cl)cc(Cl)cc65)c4)nn3)c2)C1
2. CN1Cc2c(Cl)cc(Cl)cc2[C@H](c2cccc(S(=O)(=O)NCCOCCOCCOCCN)c2)C1
3. O=C(O)CN(CCN(CC(=O)O)CC(=O)NCCOCCOCCNS(=O)(=O)c1ccc(O[C@H]2c3ccccc3C[C@@H]2N2CCCCC2)cc1)CC(=O)NCCOCCOCCNS(=O)(=O)c1ccc(O[C@H]2c3ccccc3C[C@@H]2N2CCCCC2)cc1 [compound 65]
4. CN(CC(=O)NCCOCCOCCOCCN1CCN(c2ccc(-c3nc(NC(=N)N)nc4ccc(Cl)cc34)cc2)CC1)CC(=O)NCCOCCOCCOCCN1CCN(c2ccc(-c3c(Cl)ccc4nc(NC(=N)N)ncc34)cc2)CC1
5. CCCCCCCCCCC(=O)NC(CCC(=O)NCCOCCOCCNS(=O)(=O)c1cccc([C@@H]2CN(C)Cc3c(Cl)cc(Cl)cc32)c1)(CCC(=O)NCCOCCOCCNS(=O)(=O)c1cccc([C@@H]2CN(C)Cc3c(Cl)cc(Cl)cc32)c1)CCC(=O)NCCOCCOCCNS(=O)(=O)c1cccc([C@@H]2CN(C)Cc3c(Cl)cc(Cl)cc32)c1

[74, 19, 93, 66, 67]
